# assay-name: Inhibition of DNA polymerase alpha
experimental-endpoint: pIC50
Keep in mind that pIC50 stands for -log10 of concentration in molar terms.

Q. Find the recorded pIC50 belonging to "CC1=C(O)/C(=C/[C@H](C)CC/C=C(/C)CC/C=C(\C)CCCc2ccoc2)OC1=O" and report it.
A. 5.30
